System: K. pneumoniae
Assay: MIC by broth microdilution (CLSI), K. pneumoniae
Assay type: cell-based
Settings: Klebsiella pneumoniae, broth microdilution, cation adjusted Mueller-Hinton Broth, 35° C., 18-24 h; read-out: K. pneumoniae MIC
Protocol: Minimal inhibitory concentrations (MIC) were determined by the broth microdilution method in accordance with the Clinical and Laboratory Standards Institute (CLSI) guidelines. […] Following incubation, the lowest concentration of the drug that prevented visible growth (OD600 nm<0.05) was recorded as the MIC. Performance of the assay was monitored by the use of laboratory quality-control strains and levofloxacin, a compound with a defined MIC spectrum, in accordance with CLSI guidelines.
reported_metric: MIC

List reported MIC for each of these compounds:
1. O=c1[nH]cnc(C2(Cc3ccc(C#Cc4ccc(CN5CCOCC5)cc4)cc3)CC2)c1O
2. C=CCNCC(Cc1ccc(C#CC#Cc2cn[nH]c2)cc1)c1nc[nH]c(=O)c1O (stereo not drawn)
3. O=c1[nH]cnc(CCc2ccc(C#Cc3ncccn3)cc2)c1O
4. O=c1[nH]cnc(C2(Cc3ccc(C#Cc4ccc(CNC5CCOC5)cc4)cc3)CC2)c1O (stereo not drawn)
5. O=C(NCC(F)F)C(Cc1ccc(C#CC#CC2CC2)c(F)c1)c1nc[nH]c(=O)c1O (stereo not drawn)

-- reply
> 32 µg/mL
> 32 µg/mL
> 32 µg/mL
8 to 32 µg/mL
1 to 8 µg/mL

-- ask Entry O=c1[nH]cnc(CCn2ccc(C#Cc3ccc(CN4CCOCC4)cc3)cc2=O)c1O has what MIC?
-- reply 8 to 32 µg/mL
